SUBJECT OF TEST: T1, amino acid residues 26-148 of human ANGPTL4 fused in-line to mouse IgG2a (hANGPTL4-mFc) (human)
T1 construct: contains the N-terminal coiled-coil region
T1 chain: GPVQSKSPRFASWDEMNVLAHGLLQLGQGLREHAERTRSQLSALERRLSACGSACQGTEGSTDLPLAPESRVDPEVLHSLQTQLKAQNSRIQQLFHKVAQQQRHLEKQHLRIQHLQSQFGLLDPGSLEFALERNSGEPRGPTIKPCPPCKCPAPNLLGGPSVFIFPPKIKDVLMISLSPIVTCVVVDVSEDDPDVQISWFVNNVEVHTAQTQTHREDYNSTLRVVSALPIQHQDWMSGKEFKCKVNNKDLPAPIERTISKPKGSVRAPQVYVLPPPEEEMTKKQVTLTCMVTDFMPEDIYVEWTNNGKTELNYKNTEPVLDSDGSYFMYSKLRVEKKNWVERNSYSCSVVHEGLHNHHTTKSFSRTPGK
EXPERIMENT: SPR (Biacore T100), hANGPTL4-mFc captured by anti-mouse IgG, antibody injected, 25° C.
REPORTED ENDPOINT: Kd (nM)
# number only, unit nM dropped from output

Answered examples (3):
H1H284P (antibody, V domains shown, also called entire H1H284 mAb; Full mAb) VH: QVQLVESGGGVVQPGRSLRLSCAASGFTFSSYGMHWVRQAPGKGLEWMAVISFDGGNKNNADSVKGRFTISRDNSKNTLYLQMNSLRAEDTAVYYCAKEGDRSGHPYFYYYGLDVWGQGTTVTVS VL: DIQLTQSPSFLSASVGDRVTITCWASQGISSYLAWYQQKPGKAPKLLIYAASTLQSGVPSRFSGSGSETEFTLTISSLQPEDFATYYCQQLHSYPLTFGGGTKVEIK ... 0.168
H1H653P (antibody, V domains shown, Fully human antibody, H1H prefix (human IgG1)) VH: QVQLVESGGGVVQPGRSLRLSCVASGFTFSSYGMHWVRQAPGKGLEWMAVIWYDGSNKYFADSVKDRFTISRDNSKNTLYLQMNTLRPDDTAVYYCVKADAPLLIYGVDVWGQGTTVTVS VL: DIQMTQSPSSLSASVGDRVTITCRASQGIRNDLGWYQEKPGKAPKRLIYFASSLQSGVPSRFSGSGSGTEFTLTISSLQPEDFATYYCLQHNSYPYTFGQGTKLEIK ... 0.411
H1H257P (antibody, V domains shown, Fully human antibody; the H1H prefix stands for human IgG1 (said outright only for H1H268P and H1H284P)) VH: EVQLVESGGGLVQPGGSLRLSCAASGFTFSSYDMHWVRQVAGKGLEWVSAIGTAGDTYYPVSVKGRFTISRENAKNSLYLHMNSLRAGDTAVYFCARGDSRNYYVGDYFDYWGQGTLVTVSS VL: DIQMTQSPSTLSASVGDRVTITCRASQSISRWLAWYQQKPGKAPKVLIYQASNLESGVPSRFSGSGSGTEFTLTISSLQPDDFATYYCQQYDSYSRAFGRGTKVEIK ... 0.201

If you can, please state the reported Kd value of H1H624P (antibody, V domains shown, Fully human antibody, H1H prefix (human IgG1)) VH: EVQLVESGGGLVQPGGSLRLSCAASEFIFSSYAMNWVRQAPGKGLEWVSVISGSGDSKYYADSVKGRFTISRDNSKNTLYLQMNSLRVEDTAVYYCAKDGKDRYGFYYNFYGMDVWGQGTTVTVS VL: DIQMTQSPSFLSASVGDRVTITCWASQGISSYLAWYQQKPGKAPKILIYAASTLQSGVPSRFSASGSGTEFTLTISSLQPEDFATYHCQQLNSYPFTFGPGTKVDIK .
1.19

Follow-up item: H1H283P (antibody, V domains shown, Fully human antibody, H1H prefix (human IgG1)) VH: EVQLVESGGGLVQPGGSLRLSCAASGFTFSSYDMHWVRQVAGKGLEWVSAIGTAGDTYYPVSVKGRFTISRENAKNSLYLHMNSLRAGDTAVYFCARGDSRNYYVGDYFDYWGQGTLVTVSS VL: DIQMTQSPSTLSASVGDRVTITCRASQSISRWLAWYQQKPGKAPKVLIYKASNLESGVPSRFSGSGSGTEFTLTISSLQPDDFATYYCQQYNSYSRTFGQGTKVEIK
0.13
